test system: BDF1 mice, P388 leukemia ip, median survival T/C; assay: NCI In Vivo Anticancer Drug Screen. Data for tumor model P388 Leukemia (intraperitoneal) in B6D2F1 (BDF1) mice; conditions: endpoint: median survival time; dose: 200.0 mg/kg/injection; schedule: Q01DX009 (ip); vehicle: saline
Toxic doses and inconclusive results are not listed. How the source made its calls: active means survival T/C of 150% or more; inactive means T/C below 125% in these data.
Pick from 1 for active, 0 for inactive when you respond.

Can you look up the reported call for "NC(=O)n1nccc1N" for me?
0

Please let me know the test result on file for C#CCOCC(CCl)OC(=O)Nc1ccccc1 (stereo not drawn) .
0

For this compound, state the assay outcome: "CCOC(=O)/C(C)=C\c1c(C)[nH]c(=O)[nH]c1=O"
0

Which outcome was entered for the compound "Ic1ncnc2nc[nH]c12" in this test?
0

// outcome(item) with item = "O=C(C[n+]1cc(Br)cc2ccccc21)c1ccc(O)c(O)c1"
1

What outcome does the record of this test show for O=C1/C(=C\c2ccccc2)OC(c2ccccc2)O/C1=C/c1ccccc1 (stereo not drawn) ?
0

Per the records of this test, what outcome belongs to COC(=O)C(C)CN1CCCCCC1 (stereo not drawn) ?
0

What did the test return for COC(=O)C1C(O)CCC2CN3CCc4c([nH]c5ccccc45)C3CC21 (stereo not drawn) ?
0

Assay result, entry COC1OC(CNC(=O)N(C)N=O)C(O)C(O)C1O (stereo not drawn) — outcome?
1

// outcome(item) with item = CCCC#CCOCC(O)CCl (stereo not drawn)
0

Which result was noted for this compound in the test: "Cc1ccccc1OS(=O)(=O)C(F)(F)C(F)(F)C(F)(F)C(F)(F)F"
0

For "CC1=CCCC1" , what call appears in the results of this test?
0

Hi team, can someone confirm the assay call for "Nc1n[nH]c(N)n1" ?
0

How did this test come out for "C[C@@]1(O)CCCC[C@H]1O" ?
0

Each compound tested received a call. Report the one for "COC(=O)C(NC=O)C(=O)OC" .
0

Recorded test call requested for CCN(CC)CC(=O)Nc1ccc(Cl)cc1C(O)c1ccccc1 (stereo not drawn)
0

Give the logged outcome of this assay for the following compound: COC(=O)N1CCC2OC2C1 (stereo not drawn)
0

Given "CCC(=O)O[C@H]1CC[C@H]2[C@@H]3[C@H](C)CC4=CC(=O)CC[C@]4(C)[C@H]3CC[C@]12C" , state the outcome it received in this test.
0

Fill in: this test's call for "Nc1ccc(C(=O)O)c([N+](=O)[O-])c1" is ___
0

Each compound tested received a call. Report the one for "CS(=O)(=O)Nc1ccc(C(=O)CCN2CCCCCC2)cc1" .
0

Please share the test call associated with "O=C1CN=C(c2ccc[nH]2)c2cc(Cl)ccc2N1" .
0

Recorded test outcome, item "NC1=NC(=O)/C(=C/c2ccccc2)S1"
0

Hi, do you know how NC(=O)C(N)CCSCC(=O)O (stereo not drawn) came out in this test?
0

---

system: BDF1 mice, P388 leukemia ip, median survival T/C; test: NCI In Vivo Anticancer Drug Screen. Data for tumor model P388 Leukemia (intraperitoneal) in B6D2F1 (BDF1) mice; conditions: endpoint: median survival time; dose: 400.0 mg/kg/injection; schedule: Q01DX001 (ip); vehicle: saline with Tween-80; higher = longer survival
Toxic doses and inconclusive results are not listed.
Readout Type: T/C

Result for "CCOc1ccccc1NC(=O)c1ccc(Cl)cc1" , tested on BDF1 mice, P388 leukemia ip, median survival T/C, T/C: 95 % of control

Field T/C (system: BDF1 mice, P388 leukemia ip, median survival T/C) for entry "C#CC(C)(C)NC(=O)NC12CC3CC(CC(C3)C1)C2" = 95 % of control

Tested on BDF1 mice, P388 leukemia ip, median survival T/C: "CN(C)c1ccc(/C=C2\NC(=O)NC2=O)cc1" . Observed T/C: 95 % of control

Entry "CCS(=O)(=O)c1cccc2nncn12" , tested on BDF1 mice, P388 leukemia ip, median survival T/C, has a reported T/C of 100 % of control

---

system: BDF1 mice, P388 leukemia ip, median survival T/C; experiment: NCI In Vivo Anticancer Drug Screen. Data for tumor model P388 Leukemia (intraperitoneal) in B6D2F1 (BDF1) mice; conditions: endpoint: median survival time; dose: 50.0 mg/kg/injection; schedule: Q01DX009 (ip); vehicle: saline with Tween-80
Toxic doses and inconclusive results are not listed. How the source made its calls: active means survival T/C of 150% or more; inactive means T/C below 125% in these data.
Please reply with one of these outcomes: active, inactive

Field: outcome | Entry: "Clc1ccc(C(c2ccc(Cl)cc2)C(Cl)(Cl)Cl)cc1"
inactive

Tell me the assay call for CCN(CCO)CC(C)Nc1ccc([N+](=O)[O-])c2sc3ccccc3c(=O)c12 (centres undefined) please.
active

# fetch the recorded call for "O=[N+]([O-])c1ccc(SCc2ccccc2)c2nonc12" here
active

What classification did "C/C(=C\c1ccc(Cl)cc1)C(C)(C)C(=O)O" end up with in this test?
inactive

What call does the record list for "O=C(Nc1ccc(Cl)c(Cl)c1)ON1CCCCC1" ?
inactive

Returns: the outcome recorded for "O=c1cc(O)ccn1CCc1cccs1" in this assay.
inactive

Assay outcome for "O=[N+]([O-])OCc1c(Cl)nc(Cl)c(Cl)c1Cl" : what was it?
inactive

What is the recorded call for this molecule in the test? "Clc1cccc(N=c2cc3oc4ccccc4nc-3cc2Nc2cccc(Cl)c2)c1"
inactive

Hi, do you know how "COC(=O)C(C#N)=N/C=C/C=C1/N(C)c2ccccc2C1(C)C" came out in this test?
inactive

Could you kindly confirm the outcome this assay logged for "Cc1nc2ccccc2nc1CC(O)(c1ccccc1)c1ccccc1" ?
inactive

What did this assay record as the result for "CC(C)(/C=C/c1ccccc1)C(=O)O" ?
inactive

Check the results log: what was the call for "Cc1ccc(NC(=O)Oc2c(C)cc(Cl)cc2C)c([N+](=O)[O-])c1" ?
inactive

Lab log entry: O=C1CN(N2C(=O)CSC2C23CC4CC(CC(C4)C2)C3)C(=O)CN1c1ccccc1 (centres undefined) — outcome as called in the assay?
inactive

Which outcome did this test record for the molecule "CCN1CSC(=S)N(CC)C1" ?
inactive

// return assay outcome for "NC1=NS(=O)(=O)N=C(N)C1=NNc1cccc(Cl)c1"
inactive

Given "C=CCNC(=O)C12CC3CC(CC(C3)C1)C2" , state the outcome it received in this test.
inactive

Look up the recorded call for O=CC(OC(=O)c1ccccc1)C(OC(=O)c1ccccc1)C(COC(c1ccccc1)(c1ccccc1)c1ccccc1)OC(=O)c1ccccc1 (centres undefined) in this test.
inactive

Which outcome was assigned to "C=CCCCCCCCCC(=O)NC[n+]1cccc(O)c1" in this test?
inactive

Dear all, I need the recorded test outcome for "N/N=C(/c1ccccc1)c1nc(-c2ccccc2)n[nH]c1=O" , thank you.
inactive

Which outcome was entered for the molecule COc1ccc(OC)c(C(C)(O)CC(=O)O)c1 (centres undefined) in this test?
inactive

Identify the outcome logged in this assay for the molecule shown: "O=C(/C=C/c1cccc(O)c1)c1ccccc1"
inactive

Status in this test for "Cc1cc(NC(=O)Nc2ccc(Cl)cc2)no1" ?
inactive

Status in this test for COc1ccc(C(=O)C(C)Br)c(OCc2ccccc2)c1OC (centres undefined) ?
inactive

What classification did "CC(=O)[C@H]1CC[C@H]2[C@@H]3C[C@H](F)C4=CC(=O)CC[C@]4(C)[C@H]3C(=O)C[C@]12C" end up with in this test?
inactive

# lookup: test call for "NC(=O)c1nc(-c2ccccc2)c(-c2ccccc2)[nH]c1=O"
inactive

What did the test return for "Oc1cc(CN2CCCC2)c(O)cc1CN1CCCC1" ?
inactive

Answer briefly: the call reported for OC(Cc1cccnc1)(c1ccccc1)c1ccc(Cl)cc1 (centres undefined) in this assay.
inactive

What is the recorded call for this molecule in the test? "COC(OC)c1ccccc1"
inactive

Name the outcome recorded for "CCOC1=Cc2c(oc3c(C(C)(C)C)cc(OCC)cc23)OC(C(C)(C)C)=C1" in the assay.
inactive

---

Test system: BDF1 mice, P388 leukemia ip, median survival T/C
Assay: NCI In Vivo Anticancer Drug Screen. Data for tumor model P388 Leukemia (intraperitoneal) in B6D2F1 (BDF1) mice
Settings: endpoint: median survival time; dose: 50.0 mg/kg/injection; schedule: Q01DX009 (ip); vehicle: saline with Tween-80; higher = longer survival
Method: The antitumor activity of compounds was measured in mice bearing transplantable tumors. Survival or tumor size were measured and the results are expressed as the measurement made in the treated group (T) divided by the measurement made in the vehicle treated control group (C). The tumor model used in this assay is P388 Leukemia (intraperitoneal) in B6D2F1 (BDF1) mice
Inconclusive results and toxic doses are left out.
Readout Type: T/C

In plain terms, "CNC(=N)c1ccc(NC(=N)c2ccc(NC(=N)c3ccc(NC(=O)Nc4ccc(C#N)cc4)cc3)cc2)cc1" has a documented T/C of 103 % of control

Looking up "Cc1ccc(S)cc1" , I see its T/C listed as 108 % of control

Input CCC(c1ccc(OC(=O)Cc2ccc(N(CCCl)CCCl)cc2)cc1)C(CC)c1ccc(OC(=O)Cc2ccc(N(CCCl)CCCl)cc2)cc1 (configuration not stated) . Output T/C: 104 % of control

For "NC(=S)S/C=C/C(=O)O" the compound record lists T/C as 96 % of control

Lab note: "NC(=O)c1cc(OCc2ccccc2)nc2nc(Cl)nc(N)c12" gave T/C of 100 % of control

Notebook: "O=C(O)c1oc2ccccc2c1CO" , T/C read as 99 % of control

# compound "CCCCCCCCCCCCOB(OCCCCCCCCCCCC)OCCCCCCCCCCCC" ; its T/C = 108 % of control
